Measured melting point values are reported for all entries that follow.

Below are worked cases with known answers.
response.value for CC(=O)Nc1c(C(=O)c2occc2CO)[nH]c2cc(Cl)ccc12 (field: melting point) = 196 to 198 °C

The compound listed as CCCCCCCCCCCCOC(=O)c1ccc(Cl)c(N)c1 shows melting point equal to 58.3 to 59.5 °C

Record summary for CCCC(=O)N[C@H]1CC[C@H](CCN2CCC(c3cccc4c3CCO4)CC2)CC1 : reported melting point = 196 °C

More entries:
Looking up COc1cc(Nc2c(C#N)cnc3cc(-c4ccccc4CN4CCOCC4)ccc23)c(Cl)cc1Cl , I found its melting point recorded as 107 to 109 °C

Sample O=C(Cl)C(=O)c1cn(Cc2ccc(Cl)cc2)c2ccccc12 ; melting point observed: 151 to 153 °C

melting point for CCc1ccc2c(c1)C=Cc1cc(CC)ccc1C2c1cn(Cc2nc(C(=O)O)cs2)c(=O)[nH]c1=S is 162 to 165 °C

Data point: CCCCCN1C(=O)CC(c2ccc(C(F)(F)F)cc2)C(C(=O)OCC)C1=O (stereo not given) ; melting point = 112 to 115 °C

melting point for CCC1CC2C3CCC4=C(CCC(=O)C4)C3=CCC2(CC)C1OC(C)=O (stereo not given) is 123 to 127 °C

* * *

observed-property: melting point

melting point in this record for O=C(NCCCCCCCCCCCCO)OC1CCN(C(=O)Oc2ccc(Oc3ccccc3)cc2)CC1 : 75 to 76 °C

For record Cc1ccc2nc(CN3CCN(c4ccc(F)cc4)CC3)cn2c1 the listed melting point is 112 °C

---
The recorded melting point for CCOCCn1cc2c(C3C(=O)Nc4ccc(Br)cc43)nc(NCCN3CCOCC3)nc2n1 (stereo unspecified) is 276 to 278 °C

Looking up O=C(C=NO)Nc1ccccc1F , I found its melting point recorded as 120 °C

Reported melting point ( OCCN1CCn2c1nc1ccccc12 ) = 158 to 160 °C

Lab note: measured melting point of O=C(O)CCCSc1ncnc2ncn(Cc3ccc4c(c3)Nc3nccnc3S4)c12 was 120 to 130 °C

Record Cc1ncc2c(c1O)COC2(C)C , field melting point: 247 °C

* * *

observed-property: melting point (°C)

a. CCc1ccc(-c2ccc(C(=O)Nc3cc4ncc(CN5CCCC5)cc4cc3C)cc2)cc1
b. N#Cc1ncccc1C(=O)OCc1csc(-c2cccc(Cl)c2)n1
Which value of melting point is smaller, the one for a or the one for b ? API: response body contains the label of the selected item. b
(b: 130 °C, a: 188 °C)

* * *

Entries and their melting point

Reported melting point for O=S(=O)(On1nnc2ccccc21)c1ccc(Cl)cc1 was 94 to 95 °C

Kindly note the recorded melting point for O=C(SC1CCCC1C(=O)N1CCC[C@H]1C(=O)O)c1ccccc1 (stereo partly specified) , which is 68 to 70 °C

melting point reading for O=C1NC(=O)C(c2ccc(-c3ccccc3)s2)O1 (stereo unspecified) : 233 to 235 °C

Measured melting point of CCCN(CCCc1c[nH]c2ccc(F)cc12)C1COc2c(ccc3ncccc23)C1 (stereo unspecified) : 134 °C

Recorded result, O=C(O)Cn1c(=O)sc2ccc(O)cc21 , melting point: 217 to 221 °C

***
Summary for this compound, O=C(CN1C(=O)c2ccccc2C1=O)c1ccc(F)cc1 : melting point is 140 to 144 °C

get_value(item= CSC1C(=O)Nc2c(Nc3ccccc3Cl)cccc21 (stereo unspecified) , readout=melting point) returns 151 to 153 °C

Lab book: melting point of C#CCOc1cc(-c2ccccc2)ncn1 noted as 65.1 °C

Memo: COc1ccc2cc(C(=O)C(C)OS(=O)(=O)c3ccc(C)cc3)ccc2c1 (stereo unspecified) , reported melting point: 85 to 87 °C

The measured melting point associated with CCOC(=O)COC(=O)CN1CCCCCC1=O reads 33.5 to 35 °C

The recorded melting point for O=C(O)c1cc(S(=O)(=O)NCCc2ccc(Cl)cc2)ccc1Cl is 176 to 178 °C

Record CC(NC(=O)C(C)(Cc1ccccc1)NC(=O)OC(c1ccc(F)cc1)C(C)C)c1ccccc1 (stereo unspecified) . Reported melting point: 154 °C

Short answer for Cc1ccc(Sc2nc(-c3ccc(Cl)cc3)c(CCC(=O)O)o2)cc1 : melting point was 160 to 161 °C

Reported melting point ( COC(=O)c1ccc2c3cccc4cccc(c5ccc(C(=O)OC)c1c25)c43 ) = 256 to 257 °C

According to the records, this compound c1cncc(Nc2ncc(-c3ccncn3)c(-c3ccco3)n2)c1 displays melting point of 174 °C

Item: Cc1ccc(C(=O)c2c(Cl)cc(Cl)cc2Cl)cc1C(C)c1ccc(=O)[nH]n1 (stereo unspecified) | melting point: 221 to 222 °C

* * *

Attribute: melting point

Example results:
melting point for CCOC(=O)C1CC(O)CN1C(=O)c1ccc2c(c1)OCO2 (stereo unspecified) is 98 °C

Sure, the documented melting point for COc1c(Cl)ccc(-c2cc(N)c(Cl)c(C(=O)NOCc3cnc(Cl)s3)n2)c1F is 164 to 167 °C

Data point: Cn1nc(-c2ncc(Cl)cc2F)c(Cl)c1C(F)(F)F ; melting point = 76 to 78 °C

Lab note: measured melting point of CCOC(=O)c1cn2c3c(c(F)c(F)cc3c1=O)OCC2C (stereo unspecified) was 257 to 258 °C

For reference, reported melting point for CC(C)(c1ccc2ncccc2c1)n1nnc2ccc(-c3cn[nH]c3)nc21 stands at 218 to 220 °C

The value of melting point measured for the molecule CCOC(=O)c1coc(-c2ccc(CO)cc2)n1 turned out to be 99 to 101 °C

get_value(item= O=C(O)c1ccsc1Cl , readout=melting point) returns 166 to 167 °C

molecule N#CCc1ccccc1CCNC(=O)c1ccc([N+](=O)[O-])cc1 , melting point observed: 119 °C

For record CCOC(=O)C1=C(N)NC(C)=CC1c1ccccc1Cl (stereo unspecified) the listed melting point is 171 °C

Consider N#Cc1ccc(-c2ccc(OC[C@H](O)CCc3cccnc3)cc2)cc1 . Its measured melting point is 135 to 136 °C

Okay, now this molecule:
Lab note: COC(=O)c1cc2ccc(S)cc2nc1OC gave melting point of 103 to 105 °C

* * *

Reported melting point by item:

Short answer for CCCC(=O)Nc1cccc(C(c2c(O)c3c(oc2=O)CCCCCC3)C2CC2)c1 (stereo not given) : melting point was 222 to 224 °C

Input COc1ccc(N2C(=O)N(c3ccc(OC)cc3)C(C)c3cnc(Nc4ccccc4)nc32)cc1 (stereo not given) . Output melting point: 228 to 234 °C

Reported melting point of O=C(NCCCCCn1cncn1)c1ccc(Cl)cc1 : 68 to 70 °C

Entry Nc1ccc(C(=O)C[N+](=O)[O-])c(Cl)c1 — recorded melting point = 131 to 133 °C

Looking up CC1(C)CCC(Cc2ccc(Cl)cc2)=CC1=O , I found its melting point recorded as 87 to 90 °C

What the record says about Cc1ccc2c(c1)c(Cl)c(C#N)c(=O)n2Cc1ccccc1 : melting point is 219 °C

Others:
melting point reported for this compound O=C(C#Cc1ccc(Br)cc1)Nc1ccccc1 : 159 to 160 °C

melting point recorded for this compound, CCC1(CC)Cc2cc(O)c(Cl)c(Cl)c2C1=O , is 184 °C

Documented melting point of CCn1c(C)nc2cc(C(F)(F)F)c(N(C)C)c(N)c21 : 141 to 142 °C

The recorded melting point for NS(=O)(=O)c1ccc2c(c1)S(=O)(=O)NC1CCCN21 (stereo not given) is 260 to 262 °C

Documented melting point of COc1cc(COc2nc(-c3ccccc3)ncc2CO)ccc1OCc1nc(-c2ccco2)oc1C : 150 to 151 °C

Lab note: CC(C)[C@H](NC(=O)OCc1csc(N(C)C)n1)C(=O)N[C@@H](Cc1ccccc1)[C@@H](O)C[C@H](Cc1ccccc1)NC(=O)OCc1cncs1 gave melting point of 157 to 159 °C

Noted for COc1ccc(-c2c(SCc3ccncc3)oc3cc(OCc4ccccc4)ccc3c2=O)cc1 : its melting point reads 170 °C

Briefly, melting point measured for COC(=O)c1ccc(-c2nc(-c3cccc(Cl)c3)cs2)cc1 : 150 to 151 °C

Value of measured melting point for the entry Cc1cccc(NC(=O)NCC(=O)N(CC(=O)OC(C)(C)C)c2cccc(OC(F)(F)F)c2)c1 : 125 °C

Entry O=C(CCc1ccccc1)N[C@H](Cc1ccc(C(F)(F)F)cc1)[C@@H](O)c1ccccc1F (racemic) , melting point reported as 124 to 125 °C

The reported melting point of the compound COC(=O)CSCC1Cn2cc(C(=O)NCc3ccc(Cl)cc3)c(=O)c3cc(CN4CCOCC4)cc(c32)O1 (stereo not given) was 182 to 183 °C

* * *

The entries below come with measured melting point values attached.

Would you please look over these solved cases?
Per the records, this compound ( COc1cc(OC)c2c(=O)c3oc4cc(OC)ccc4c3oc2c1 ) has melting point equal to 272 to 274 °C

Sample CC1CCC(C(C)C)C(OC(=O)C(=O)Nc2nc(-c3ccccc3)cs2)C1 (stereo not given) ; melting point observed: 98 to 100 °C

Recorded melting point (compound CCN1CCN(c2cccc(Nc3nc4c(-c5ccc(P(C)(C)=O)cc5)cccn4n3)c2)C(=O)C1 ): 205 to 207 °C

Query c1c(N2CCC3(CC2)OCCO3)nc(N2CCNCC2)nc1N1CCC2(CC1)OCCO2 yields melting point of 122 to 126 °C

What the record says about CCn1c(CCCO)nc(C(C)C)c1Sc1cc(Cl)cc(Cl)c1 : melting point is 73 °C

Per the record, Cc1c[nH]c2c([N+](=O)[O-])cccc2c1=O has melting point of 235 to 243 °C

---
Entry Cc1cc(F)cc2c(=O)c(C(=O)O)cn(CC(F)(F)F)c12 ; melting point = 198 to 201 °C

The compound CCCCCCOc1ccc(CCC(=O)OC2CCC3C4CCC5=CC(=O)CCC5C4CCC23C)cc1 (stereo not given) showed melting point equal to 52 to 53 °C

melting point reading for N#CCCCNC(=O)c1nn(C2CCCCO2)cc1NC(=O)c1ccccn1 (stereo not given) : 155 to 157 °C

Reported melting point of Cc1ccc(-c2cn3cc(-c4cccc(CO)c4)ccc3n2)cc1 : 171 to 173 °C

The reported numbers originate from a melting point compilation (Tetko et al.; mined from patent text by program, amines drawn as free bases though some values may be those of a salt).
